- system-under-test: Voltage-gated potassium channel, KQT; KCNQ2(Kv7.2)/KCNQ3(Kv7.3) (Homo sapiens, UniProt O43525+O43526)
- Sequence (O43526 whole entry): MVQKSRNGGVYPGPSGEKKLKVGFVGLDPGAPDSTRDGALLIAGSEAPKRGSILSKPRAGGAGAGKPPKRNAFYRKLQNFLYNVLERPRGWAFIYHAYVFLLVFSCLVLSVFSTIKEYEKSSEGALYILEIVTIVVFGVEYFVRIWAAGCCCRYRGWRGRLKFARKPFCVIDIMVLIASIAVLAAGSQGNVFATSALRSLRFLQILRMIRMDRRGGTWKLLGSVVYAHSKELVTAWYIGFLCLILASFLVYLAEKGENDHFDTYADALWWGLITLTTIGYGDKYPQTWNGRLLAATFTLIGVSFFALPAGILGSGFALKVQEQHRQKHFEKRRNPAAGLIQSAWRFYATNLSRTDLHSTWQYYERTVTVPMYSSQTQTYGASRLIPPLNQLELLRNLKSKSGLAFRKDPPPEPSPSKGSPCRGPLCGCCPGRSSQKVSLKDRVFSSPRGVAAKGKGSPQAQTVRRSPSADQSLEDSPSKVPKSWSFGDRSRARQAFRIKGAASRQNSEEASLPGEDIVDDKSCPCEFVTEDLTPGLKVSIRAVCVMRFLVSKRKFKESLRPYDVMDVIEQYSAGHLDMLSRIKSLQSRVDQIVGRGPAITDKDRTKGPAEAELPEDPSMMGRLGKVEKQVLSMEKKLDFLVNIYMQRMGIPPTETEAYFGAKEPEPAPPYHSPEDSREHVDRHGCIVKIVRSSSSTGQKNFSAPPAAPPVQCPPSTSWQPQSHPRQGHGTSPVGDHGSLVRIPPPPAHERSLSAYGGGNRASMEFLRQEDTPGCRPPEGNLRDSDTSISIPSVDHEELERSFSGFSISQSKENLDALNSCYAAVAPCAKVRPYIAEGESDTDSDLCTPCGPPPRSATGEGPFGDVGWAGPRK
- Sequence (O43525 whole entry): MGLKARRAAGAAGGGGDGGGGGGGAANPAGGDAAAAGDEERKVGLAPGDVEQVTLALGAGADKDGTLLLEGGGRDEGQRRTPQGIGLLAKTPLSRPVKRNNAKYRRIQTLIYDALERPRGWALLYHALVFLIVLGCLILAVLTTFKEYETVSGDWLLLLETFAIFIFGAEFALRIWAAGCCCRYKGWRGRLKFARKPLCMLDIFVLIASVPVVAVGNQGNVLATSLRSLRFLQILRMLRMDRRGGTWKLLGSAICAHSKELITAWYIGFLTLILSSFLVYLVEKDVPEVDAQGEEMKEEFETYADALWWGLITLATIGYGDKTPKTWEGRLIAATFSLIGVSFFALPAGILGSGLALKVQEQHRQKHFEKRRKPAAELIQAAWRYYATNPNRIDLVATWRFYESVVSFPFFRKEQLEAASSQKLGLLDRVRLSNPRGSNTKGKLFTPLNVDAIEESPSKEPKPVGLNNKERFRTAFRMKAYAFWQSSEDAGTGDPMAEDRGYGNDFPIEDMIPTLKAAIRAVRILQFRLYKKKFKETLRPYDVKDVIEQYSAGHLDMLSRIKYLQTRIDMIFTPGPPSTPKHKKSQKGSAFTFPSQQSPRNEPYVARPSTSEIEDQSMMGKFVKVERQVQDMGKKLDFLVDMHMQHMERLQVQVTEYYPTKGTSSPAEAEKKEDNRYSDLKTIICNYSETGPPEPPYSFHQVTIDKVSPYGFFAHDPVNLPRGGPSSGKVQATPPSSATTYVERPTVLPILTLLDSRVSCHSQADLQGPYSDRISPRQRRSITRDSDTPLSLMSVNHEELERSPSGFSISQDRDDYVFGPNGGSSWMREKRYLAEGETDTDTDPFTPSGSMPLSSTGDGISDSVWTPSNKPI
- method-notes: Activation of human Kv7.2/7.3 expressed in CHOK1 cells
measure: log10 of EC50 (log10 of the value in µM)
Please interpret these as log10 of EC50 where EC50 is in µM.

Look at each molecule and report its log10 of EC50.
1. COc1nc(N2CCC(OC)CC2)nc(OC)c1NC(=O)CCC(C)C
2. COc1nc(N2CCC(OC(C)C)CC2)nc(OC)c1NC(=O)CC(C)(C)C
3. COc1nc(N2CCC(OC)CC2)nc(OC)c1NC(=O)CC1CCCC1
4. COc1nc(N2C[C@@H]3C[C@H]2CO3)nc(OC)c1NC(=O)CC(C)(C)C
5. COc1nc(N2CC3(COC3)C2)nc(OC)c1NC(=O)CC(C)(C)C
6. COc1nc(N2CCC(OC)CC2)nc(OC)c1NC(=O)CC(C)C

Result ::
-0.52
-0.45
-0.46
0.28
0.96
-0.20
